# protocol: Solubility (thermodynamic, shake-flask)
# Type: physicochemical
# cond: thermodynamic from solid; aqueous phosphate buffer (pH 7.4), 24 hours at 25° C.
property_measured: solubility at 24 h
In your response, put the unit directly after the numeric value.

// solved cases for solubility at 24 h follow
C=CC(=O)N1CC(Nc2nc(-c3ccc(C(F)(F)F)cc3)nc3ccccc23)C1 [Comparative Example B, reference compound]	2 µM
C=CC(=O)N1C[C@H](F)[C@H](Nc2nnc(-c3ccc(C(F)(F)F)cc3)c3cccnc23)C1 [Example 2]	188 µM
C=CC(=O)N1C[C@@H](Nc2nnc(-c3ccc(C(F)(F)F)cc3)c3ccccc23)C[C@H]1CO [Example 48]	2.4 µM
C=CC(=O)N1C[C@H](Nc2nnc(-c3ccc(C(F)(F)F)cc3)c3ccccc23)[C@@H](C(N)=O)C1 (single isomer, unassigned; enantiomer 1) [Example 31]	534 µM

IN: Suppose we examine the molecule C=CC(=O)N1CC[C@@H](c2nc(-c3ccc(C(F)(F)F)cc3)c3ccccc3n2)C1 (racemic) [Comparative Example C, reference compound] ; what solubility at 24 h value has been reported?
OUT: 66 µM

IN: Given the molecule C=CC(=O)N1C[C@H](C#N)[C@H](Nc2nnc(-c3ccc(C(F)(F)F)cc3)c3ccccc23)C1 (single isomer, unassigned; enantiomer 1) [Example 29] , what is its reported solubility at 24 h?
OUT: 7 µM
